System: Human immunodeficiency virus type 1 reverse transcriptase (Human immunodeficiency virus 1), Q72547 [P236L]
Assay text: Inhibitory activity against HIV-1 reverse transcriptase (P236L) at 10 uM dose
// reported inhibition for each item listed
Answer with a number only, understood to be in %.

>>> print(df.to_string())
                chemical_structure  quantity_measured  test_result
0    COc1ccc(CSc2nc(N)cc(Cl)n2)cc1         inhibition           63
1  Nc1cc(Cl)nc(NCc2ccc3ccccc3c2)n1         inhibition           17

Field inhibition (entry NNc1cc(Cl)nc(SCc2ccccc2)n1 ) reads 31

The reported value for CC1(C)CCC(C)(C)c2cc(CSc3nc(N)cc(Cl)n3)ccc21 in terms of inhibition is 23

Measured inhibition, Nc1cc(Cl)nc(SCc2cc(Br)cc(Br)c2)n1 : 73

Per the records, this molecule ( Nc1cc(Cl)nc(SCC2=Cc3ccccc3CC2)n1 ) has inhibition equal to 87

Lab note: Clc1cc(N2CCCCC2)nc(SCc2ccccc2)n1 gave inhibition of 47

* * *

Below is a list of entries, each paired with its recorded inhibition value.
System: Human immunodeficiency virus type 1 reverse transcriptase (Human immunodeficiency virus 1), Q72547 [P236L]
Assay text: Inhibitory activity against HIV-1 reverse transcriptase (P236L) at 10 uM dose
Express your answer in %, writing the number without its unit.

>>> df
                      chemical_structure  test_result
0    CC(C)(C)c1ccc(CSc2nc(N)cc(Cl)n2)cc1           56
1  Nc1cc(C(F)(F)F)nc(SCc2ccc3ccccc3c2)n1           94
2           CCCNc1cc(Cl)nc(SCc2ccccc2)n1           30

Reported inhibition ( CCCCCCCCCSc1nc(N)cc(Cl)n1 ) = 0

# inhibition (compound: Nc1cc(Cl)nc(S(=O)(=O)Cc2cccc(Br)c2)n1 ) is 14

Noted for Clc1cc(Cl)nc(SCc2ccccc2)n1 : its inhibition reads 25

// inhibition lookup, compound = Nc1cc(Cl)nc(SCC2CCCCC2)n1 , result: 13

Per the record, OCCCNc1cc(Cl)nc(SCc2ccccc2)n1 has inhibition of 3

// recorded inhibition for Nc1cc(Cl)nc(SCc2cc3c(cc2Cl)OCO3)n1 : 99
